- Test system: Plasmodium falciparum Sir2 (PF13_0152, Sir2A)
- assayNotes: pfSir2 binders on small-molecule microarrays, primary screen, biochemical, small-molecule microarray, 635 nm fluorescence (AID 1098);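 also: score merges spot fluorescence intensity with its signal-to-noise ratio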
- testSettings: small-molecule microarray binding, fluorescence 635 nm; higher = more signal
Catalogue of composite z-score values
Response field accepts a number only; no unit should be typed.

Examples with answers:
CC1CC/C=C\[C@H]2OC34C=CCN(C(C)C)C(=O)[C@H]3N(CCCCCO)C(=O)[C@@H]4C2C(=O)O1 (some centres undefined)	0.382
CN(C)C(=O)[C@@]1(Cc2ccccc2N=[N+]=[N-])COC(c2ccc(OCCCO)cc2)=N1	1.54
COC(=O)[C@@]1(Cc2ccccc2)[C@H]2c3cc(C(=O)N4CCCC4)n(Cc4ccsc4Br)c3C[C@H]2CN1C(=O)c1ccccc1	0.31

// next item, composite z-score requested
Request: Find the recorded composite z-score belonging to COC(=O)[C@@]1(Cc2ccc(OC)cc2)[C@H]2c3cc(C(=O)N(C)C)n(CCc4c[nH]c5ccc(O)cc45)c3C[C@H]2CN1C(=O)c1ccccc1 and report it.
Response: 1.06
